Hey, just so you know, these numbers are from ChEMBL document CHEMBL1629563.

- Test: Apparent volume of distribution at steady state in healthy human at 5 mg, po administered as single dose coadministered with 100 mg of ritonavir
- Assay type: ADME, organism-based
- Assay setup: in vivo, read-out: Vss/F
Recorded metric: Vd/F (L)
Numbers only, in L.

Query: Vd/F; subject: CCN1c2ncc(CCOc3cc[n+]([O-])c4ccccc34)cc2C(=O)N(C)c2cccnc21
166

* * *

- Test: Cmax in healthy human at 12.5 mg, po administered as single dose coadministered with 100 mg of ritonavir by high-pressure liquid chromatography-tandem mass spectrometry/mass spectrometry method
- Type: ADME, organism-based
- Parameters: dose 12.5 mg, route oral
- Assay setup: in vivo
Recorded metric: Cmax
Answer shape: numeric part, then the unit.

Query: Cmax; subject: CCN1c2ncc(CCOc3cc[n+]([O-])c4ccccc34)cc2C(=O)N(C)c2cccnc21
74.1 ng/mL
